# target.of.assay: human TPH1 (Homo sapiens (Human))
# Sequence (P17752 whole entry): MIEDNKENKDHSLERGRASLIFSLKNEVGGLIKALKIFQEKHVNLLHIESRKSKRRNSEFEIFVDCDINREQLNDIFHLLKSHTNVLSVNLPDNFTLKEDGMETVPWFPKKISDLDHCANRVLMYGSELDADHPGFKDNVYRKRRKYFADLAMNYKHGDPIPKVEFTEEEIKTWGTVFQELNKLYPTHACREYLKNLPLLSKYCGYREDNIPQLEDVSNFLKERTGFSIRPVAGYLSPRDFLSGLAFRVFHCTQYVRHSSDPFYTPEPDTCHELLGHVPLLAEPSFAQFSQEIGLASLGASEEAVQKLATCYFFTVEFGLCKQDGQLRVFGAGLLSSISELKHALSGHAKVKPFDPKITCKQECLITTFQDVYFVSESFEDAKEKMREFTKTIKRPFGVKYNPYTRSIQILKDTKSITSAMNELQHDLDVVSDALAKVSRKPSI
# test.method.notes: Biochemical in vitro assay using fluorescence readout (TPH1 inhibition)
# measurement.conditions: human TPH1, fluorescence readout
Each item that follows carries a reported pIC50.
The quantity pIC50 is defined as the negative base-10 logarithm of the molar concentration.

| molecule | pIC50 |
| --- | --- |
| Cc1nn2c3c(nc2s1)CCN(C(=O)COc1ccc(NS(C)(=O)=O)nc1Cl)C3c1ncc(F)cc1C (centres unmarked) | 8.05 |

QUERY: Fill in: pIC50 of Cc1nn2c3c(nc2s1)CCN(C(=O)COc1ccc(S(N)(=O)=O)cc1C)C3c1ccc(Cl)nc1F (centres unmarked) is ___
RESULT: 7.13

QUERY: What value of measured pIC50 is listed for CCOC(=O)c1ncc(C2c3c(nc4sc(C)nn34)CCN2C(=O)COc2ccc(N3CCOCC3)nc2Cl)s1 (centres unmarked) ?
RESULT: 8.05

QUERY: Which pIC50 is reported for this molecule? Cc1cnc(C2c3c(nc4sc(C)nn34)CCN2C(=O)COc2ccc(C(=O)N(C)C)nc2Cl)c(F)c1 (centres unmarked)
RESULT: 8.22

QUERY: Suppose we examine the molecule Cc1nn2c3c(nc2s1)CCN(C(=O)COc1ccc(N2CCOCC2)nc1Cl)C3c1coc(-c2ccccc2)n1 (centres unmarked) ; what pIC50 value has been reported?
RESULT: 7.85

QUERY: Entry COCc1ccc(C2c3c(nc4sc(C)nn34)CCN2C(=O)COc2ccc(NS(C)(=O)=O)nc2Cl)c(F)c1 (centres unmarked) has what pIC50?
RESULT: 7.77

QUERY: Look at this molecule and give its reported pIC50. O=C(COc1ccc(N2CCOCC2)nc1Cl)N1CCc2nc3sccn3c2C1c1ccc(C2CC2)cc1F (centres unmarked)
RESULT: 8.40

QUERY: Sample CCOC(=O)c1ncc(C2c3c(nc4sc(C)nn34)CCN2C(=O)COc2ccc(C#N)cc2Cl)s1 (centres unmarked) — what was its pIC50?
RESULT: 6.43

====

# target.of.assay: human TPH1 (Homo sapiens (Human))
# test.method.notes: Biochemical in vitro assay using fluorescence readout (TPH1 inhibition)
# measurement.conditions: human TPH1, fluorescence readout
pIC50: −log10 of the molar value.
Assign met whenever pIC50 does not fall below 8; assign not met whenever it does.

QUERY: Could you please find out whether Cc1nn2c3c(nc2s1)CCN(C(=O)COc1ccc(S(N)(=O)=O)cc1C)C3c1sccc1F (stereo not drawn) has pIC50 that meets 8 or exceeds it?
RESULT: not met

QUERY: Does the molecule O=C(COc1cccnc1Cl)N1CCc2nc3sccn3c2C1c1cc2cccnc2s1 (stereo not drawn) have recorded pIC50 that is 8 or more?
RESULT: not met

QUERY: Decide: pIC50 of Cc1cnc(C2c3c(nc4sc(C)nn34)CCN2C(=O)COc2ccc(NS(=O)(=O)C3CC3)nc2Cl)c(F)c1 (stereo not drawn) >= 8?
RESULT: not met

QUERY: Determine whether measured pIC50 meets or exceeds 8 for COC1(C)CN(c2ccc(OCC(=O)N3CCc4nc5sc(C)nn5c4C3c3ccc(Cl)cc3F)c(Cl)n2)C1 (stereo not drawn)
RESULT: not met

QUERY: pIC50 >= 8 for Cc1nn2c3c(nc2s1)CCN(C(=O)COc1ccc(C(F)(F)F)cc1Cl)C3c1ccc(Cl)nc1F (stereo not drawn) ?
RESULT: met

QUERY: Determine whether measured pIC50 meets or exceeds 8 for Cc1ccc(OCC(=O)N2CCc3nc4sccn4c3C2c2cnn(-c3ccccc3)c2)cc1 (stereo not drawn)
RESULT: not met
